test: yeast display, Sf9 membrane polyspecificity reagent, FACS + sequencing; frameworks hold sequencing errors
property name: polyreactivity (PSR sort gate)

Sample answers from the record:
[[record]]
macromolecule_sequence = "QVQLVESGGGLVQAGGSLRLSCAASGSTFRYNSMGWYRQAPGKDRELVAAISRIGGTTYADSVKGRFTISRDNAKNTVYLQMNSLNPEDTAVYYCARANWGYYGPEYGYWGQGTQVTVSS"
property_name = "polyreactivity (PSR sort gate)"
result = "high polyreactivity"

[[record]]
macromolecule_sequence = "QVQLVESGGGLVQAGGSLRLSCAASGGIFVGNAMGWYRQAPGKERELVAAISQRGGRTYYADSVKGRFTISRDNAKNTVYLQMNSLKPEDTAVYYCAAGYWLSTDSGYPFQYYLYDYWGQGTQVTVSS"
property_name = "polyreactivity (PSR sort gate)"
result = "high polyreactivity"

[[record]]
macromolecule_sequence = "QVQLVESGGGLGQAGGSLRLSCAASGRTFFRYAMGWYRQAPGKERELVAAISSRGGSTYYADSVKGRFTISRDNAKNTVYLQMNSLKPEDTAVYYCNAAAFINFILYDYWGQGTQVTVSS"
property_name = "polyreactivity (PSR sort gate)"
result = "high polyreactivity"

[[record]]
macromolecule_sequence = "QVQLVESGGGLVQAGGSLRLSCAASGSTFYSNAMGWYRQAPGKERELVATISQRGGRTYYADSVKGRFTISRDNAKNTVYLQMNSLKPEDTAVYYCAKAATSWYGRYGYDYWGQGTQVTVSS"
property_name = "polyreactivity (PSR sort gate)"
result = "low polyreactivity"


The record that follows has no polyreactivity (PSR sort gate) shown yet.
-- ask What polyreactivity (PSR sort gate) value was documented for this sequence, `QVQLVESGGGLVQAGGSLRVSCAASGSTFPPSAMGWYREAPGKERELGAAIDWSDGTTYYADSVKGRFTISRDYAKNTVYLQMNSLKPEDTAVYYCAADPVLDEYDYWGQGTQVTVSS` ?
-- reply low polyreactivity

Data provenance is the nanobody polyreactivity screen of Harvey et al. (2022).
